Source listed as patent US20250215039A1.

- Tested on: cancer cell lines
- measurement.notes: Cancer cell proliferation activity (CellTiterGlo, 72 h)
- Assay type: cell-based
- setup.conditions: Homo sapiens, EFO-21, 72 h, EFO21 (ovary), 72 h; read-out: IC50 cell proliferation

>  <item.smiles>
Nc1nc(F)nc2c1ncn2[C@@H]1O[C@H](CO)[C@@H](O)[C@H]1O

>  <relation.sign>
=

>  <IC50, nM>
70

$$$$
>  <item.smiles>
C[C@]1(CO)O[C@@H](n2ccc(N)nc2=O)C(F)(F)[C@@H]1O

>  <relation.sign>
>

>  <IC50, nM>
50000

$$$$
>  <item.smiles>
CCC[C@]1(CO)O[C@@H](n2cnc3c(N)nc(F)nc32)[C@H](O)[C@@H]1O

>  <relation.sign>
=

>  <IC50, nM>
150

$$$$
>  <item.smiles>
Nc1nc(=O)n([C@H]2C[C@H](O)[C@@H](CO)O2)cc1F

>  <relation.sign>
=

>  <IC50, nM>
476

$$$$
>  <item.smiles>
Nc1ccn([C@H]2C[C@H](O)[C@](CO)(CF)O2)c(=O)n1

>  <relation.sign>
=

>  <IC50, nM>
790

$$$$
>  <item.smiles>
Nc1nc(=O)n([C@H]2C[C@H](O)[C@](CO)(CF)O2)cc1F

>  <relation.sign>
>

>  <IC50, nM>
50000

$$$$
